# Tested Target: human α4β2 subtype of nicotinic acetylcholine receptors (Homo sapiens, UniProt P17787+P43681)
# Construct: expressed in transfected cells; host or cells: Xenopus laevis oocytes injected with hnACh-R α4 and β2 cRNA (pSP64 polyA vector)
# Sequence (P43681 29-627 limits assumed): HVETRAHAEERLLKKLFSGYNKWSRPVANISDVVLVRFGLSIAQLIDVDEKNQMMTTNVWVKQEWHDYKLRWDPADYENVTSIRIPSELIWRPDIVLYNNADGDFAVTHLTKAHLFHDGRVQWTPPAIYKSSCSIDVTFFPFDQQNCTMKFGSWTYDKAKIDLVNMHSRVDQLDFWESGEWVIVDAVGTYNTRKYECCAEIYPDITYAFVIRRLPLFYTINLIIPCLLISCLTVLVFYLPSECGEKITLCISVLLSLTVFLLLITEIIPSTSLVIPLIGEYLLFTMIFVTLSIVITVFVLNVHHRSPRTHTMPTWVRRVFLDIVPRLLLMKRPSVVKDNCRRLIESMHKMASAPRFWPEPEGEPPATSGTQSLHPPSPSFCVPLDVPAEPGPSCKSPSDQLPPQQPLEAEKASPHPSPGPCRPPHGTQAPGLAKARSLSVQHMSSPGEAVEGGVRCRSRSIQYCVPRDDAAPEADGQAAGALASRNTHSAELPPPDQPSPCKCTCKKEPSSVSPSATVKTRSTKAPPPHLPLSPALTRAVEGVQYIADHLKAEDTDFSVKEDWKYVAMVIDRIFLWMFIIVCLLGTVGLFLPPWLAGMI
# Sequence (P17787 26-502): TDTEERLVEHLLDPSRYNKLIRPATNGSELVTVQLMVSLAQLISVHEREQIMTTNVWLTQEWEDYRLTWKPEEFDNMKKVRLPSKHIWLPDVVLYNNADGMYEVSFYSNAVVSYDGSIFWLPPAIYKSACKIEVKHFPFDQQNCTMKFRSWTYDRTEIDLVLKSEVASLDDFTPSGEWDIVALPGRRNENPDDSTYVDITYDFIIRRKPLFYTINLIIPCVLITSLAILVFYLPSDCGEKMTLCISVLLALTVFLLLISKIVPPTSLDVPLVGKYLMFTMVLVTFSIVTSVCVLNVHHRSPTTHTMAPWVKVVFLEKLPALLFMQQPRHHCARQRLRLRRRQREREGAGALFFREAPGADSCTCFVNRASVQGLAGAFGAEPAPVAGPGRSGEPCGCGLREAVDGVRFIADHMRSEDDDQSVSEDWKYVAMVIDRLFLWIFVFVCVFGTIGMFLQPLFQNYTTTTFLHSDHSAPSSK
# Assay type: cell-based
# Test Parameters: response at 100 μM test compound, in comparison with response at 10 μM acetylcholine (100%); oocytes held at −50 mV
Quick list: Agonist effect per entry.
Measure: Agonist effect (%)

smiles_structure=Clc1ccc(C/N=c2\sccn2Cc2ccc(Cl)nc2)cn1 measure="Agonist effect" unit_tag=% meas_value=11
smiles_structure=Clc1ccc(C/N=C2\OCCCN2Cc2ccc(Cl)nc2)cn1 measure="Agonist effect" unit_tag=% meas_value=27
smiles_structure=Cn1ccn(Cc2ccc(Cl)nc2)c1=N measure="Agonist effect" unit_tag=% meas_value=5
smiles_structure=Clc1ccc(C/N=C2\SCCN2Cc2ccc(Cl)nc2)cn1 measure="Agonist effect" unit_tag=% meas_value=6

---

# Tested Target: α1β1γδ subtype of nicotinic acetylcholine receptors (Rattus norvegicus, UniProt P18916+P25108+P25109+P25110)
# Construct: The centrifugation at 100,000×G for 60 minutes at 4° C. yielded the rat muscle extract as supernatant
# Test Name: biochemical
pKi: −log10 of the molar value.
Measure: pKi

smiles_structure=Clc1ccc(C/N=c2\sccn2Cc2ccc(Cl)nc2)cn1 meas_value=3.08
smiles_structure=Clc1ccc(CC/N=C2\SCCN2Cc2ccc(Cl)nc2)cn1 meas_value=3.32
smiles_structure=Clc1ccc(C/N=C2\SCCN2Cc2ccc(Cl)nc2)cn1 meas_value=3.38
smiles_structure=Cn1ccn(Cc2ccc(Cl)nc2)c1=N meas_value=3.49

---

# Tested Target: α4β2 subtype of nicotinic acetylcholine receptors (Rattus norvegicus, UniProt P09483+P12390)
# Construct: examined using rat brain membrane obtained from whole homogenized brain; from tissue; host or cells: whole brain membranes of Fischer-344 male rats
# Sequence (P09483 31-630): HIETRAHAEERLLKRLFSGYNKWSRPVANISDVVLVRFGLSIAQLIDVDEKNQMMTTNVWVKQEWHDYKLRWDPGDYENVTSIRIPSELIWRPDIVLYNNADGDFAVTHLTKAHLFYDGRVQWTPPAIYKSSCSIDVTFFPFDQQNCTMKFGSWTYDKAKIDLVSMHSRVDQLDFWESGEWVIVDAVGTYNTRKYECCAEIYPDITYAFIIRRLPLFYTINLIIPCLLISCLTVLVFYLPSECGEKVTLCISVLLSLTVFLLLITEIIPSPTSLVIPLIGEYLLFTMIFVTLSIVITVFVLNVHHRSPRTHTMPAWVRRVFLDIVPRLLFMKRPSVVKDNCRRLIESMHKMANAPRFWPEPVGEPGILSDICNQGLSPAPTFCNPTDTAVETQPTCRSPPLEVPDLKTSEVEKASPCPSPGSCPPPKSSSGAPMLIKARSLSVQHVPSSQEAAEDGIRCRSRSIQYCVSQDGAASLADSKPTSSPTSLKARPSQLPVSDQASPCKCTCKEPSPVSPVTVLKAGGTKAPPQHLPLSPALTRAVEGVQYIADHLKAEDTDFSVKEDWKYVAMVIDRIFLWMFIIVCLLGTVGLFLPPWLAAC
# Sequence (P12390 25-500): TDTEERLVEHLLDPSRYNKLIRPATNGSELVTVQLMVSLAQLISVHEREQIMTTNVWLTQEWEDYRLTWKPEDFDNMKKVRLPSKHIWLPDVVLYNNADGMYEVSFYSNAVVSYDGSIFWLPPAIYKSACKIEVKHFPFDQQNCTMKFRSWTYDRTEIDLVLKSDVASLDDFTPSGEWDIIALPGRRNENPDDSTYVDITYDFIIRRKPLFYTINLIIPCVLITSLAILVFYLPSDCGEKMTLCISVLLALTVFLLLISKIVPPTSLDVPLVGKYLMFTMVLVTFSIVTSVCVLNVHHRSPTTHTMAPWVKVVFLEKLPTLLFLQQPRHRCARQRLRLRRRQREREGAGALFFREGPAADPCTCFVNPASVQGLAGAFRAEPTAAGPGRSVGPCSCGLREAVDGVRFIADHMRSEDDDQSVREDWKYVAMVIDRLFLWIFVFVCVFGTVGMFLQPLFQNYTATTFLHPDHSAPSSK
# Test Name: Binding assay at α4β2 subtype of nicotinic acetylcholine receptors ([3H]-cytisine, rat brain membrane)
# Test Parameters: 1 μM test compound; % of control binding remaining
# Protocol: The methods for evaluating the binding capabilities of the compounds against nicotinic acetylcholine receptors are different by subtypes of receptors. […] Suspensions of membrane pellets containing 400-600 μg of protein were added to test tubes containing test compounds and [^3H]-cytisine (2 nM) in a final volume of 200 μl and incubated for 75 minutes in ice-cooled bath. […] The filters were counted in 3 ml of clearsol I (Nacalai Tesque Inc.). […]
Measure: control % of [3H]-cytisine binding at 1 μM of test compound (%)

compound=Clc1cc/c(=N\Cc2ccc(Cl)nc2)n(Cc2ccc(Cl)nc2)c1 meas_value=94
compound=Clc1ccc(C/N=c2\ncccn2Cc2ccc(Cl)nc2)cn1 meas_value=92
compound=C/N=C1\SCCN1Cc1ccc(Cl)nc1 meas_value=93
compound=N=c1n(Cc2ccc(Cl)nc2)ccn1Cc1ccc(Cl)nc1 meas_value=89
compound="CC1CCC/C(=N\\Cc2ccc(Cl)nc2)N1Cc1ccc(Cl)nc1 (stereo not drawn)" meas_value=85
compound=Clc1ccc(Cn2ccs/c2=N\c2ccccc2)cn1 meas_value=109

---

# Tested Target: α1β1γδ subtype of nicotinic acetylcholine receptors (Rattus norvegicus, UniProt P25108)
# Construct: The centrifugation at 100,000×G for 60 minutes at 4° C. yielded the rat muscle extract as supernatant
# Sequence (P25108 21-457): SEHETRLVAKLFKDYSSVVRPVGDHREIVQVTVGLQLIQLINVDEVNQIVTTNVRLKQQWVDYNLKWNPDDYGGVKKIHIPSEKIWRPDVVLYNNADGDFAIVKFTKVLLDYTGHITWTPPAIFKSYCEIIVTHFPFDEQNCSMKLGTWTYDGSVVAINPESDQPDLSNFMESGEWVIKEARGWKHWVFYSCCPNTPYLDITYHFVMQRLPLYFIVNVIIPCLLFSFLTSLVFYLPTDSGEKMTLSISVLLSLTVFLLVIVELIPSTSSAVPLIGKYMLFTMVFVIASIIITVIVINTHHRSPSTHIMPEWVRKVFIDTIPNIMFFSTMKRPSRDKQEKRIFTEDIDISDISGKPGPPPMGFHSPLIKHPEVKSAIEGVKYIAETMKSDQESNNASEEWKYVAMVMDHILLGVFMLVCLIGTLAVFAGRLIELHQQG
# Sequence (P25109 24-501, further chain): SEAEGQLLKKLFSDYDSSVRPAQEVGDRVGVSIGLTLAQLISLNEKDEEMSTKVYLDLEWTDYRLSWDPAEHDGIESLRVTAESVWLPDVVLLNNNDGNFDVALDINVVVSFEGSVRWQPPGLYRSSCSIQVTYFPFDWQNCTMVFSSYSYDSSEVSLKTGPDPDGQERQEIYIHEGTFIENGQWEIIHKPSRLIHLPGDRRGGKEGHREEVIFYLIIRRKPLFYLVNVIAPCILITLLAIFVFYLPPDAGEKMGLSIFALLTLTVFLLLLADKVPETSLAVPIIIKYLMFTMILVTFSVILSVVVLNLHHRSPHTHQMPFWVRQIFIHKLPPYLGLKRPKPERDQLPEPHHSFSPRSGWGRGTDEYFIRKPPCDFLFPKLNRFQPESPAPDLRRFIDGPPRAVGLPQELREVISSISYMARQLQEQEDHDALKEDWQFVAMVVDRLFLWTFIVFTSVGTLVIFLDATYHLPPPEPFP
# Sequence (P25110 22-517, further chain): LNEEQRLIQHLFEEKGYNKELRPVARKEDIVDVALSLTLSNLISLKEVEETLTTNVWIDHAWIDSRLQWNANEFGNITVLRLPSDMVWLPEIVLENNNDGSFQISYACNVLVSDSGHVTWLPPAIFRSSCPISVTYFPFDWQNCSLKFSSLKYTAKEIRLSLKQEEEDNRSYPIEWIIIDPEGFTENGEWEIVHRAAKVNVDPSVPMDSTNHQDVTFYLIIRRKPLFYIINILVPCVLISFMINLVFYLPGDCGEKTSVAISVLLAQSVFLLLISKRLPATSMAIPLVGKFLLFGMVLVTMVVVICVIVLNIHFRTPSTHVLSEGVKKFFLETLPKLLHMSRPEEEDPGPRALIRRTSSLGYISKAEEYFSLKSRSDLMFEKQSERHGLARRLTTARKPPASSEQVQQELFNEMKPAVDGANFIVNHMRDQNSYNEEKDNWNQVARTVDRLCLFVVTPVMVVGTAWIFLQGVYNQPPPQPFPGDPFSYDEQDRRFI
# Test Name: biochemical
# Assay type: binding
# Test Parameters: 1,000 μM test compound; % of control binding remaining
Entries whose control % of [3H]-α-Bgt binding at 1,000 μM of test compound is below 50% take Met; entries at or above 50% take Not met.

compound="Clc1ccc(C/N=C2\\NCCCN2Cc2ccc(Cl)nc2)cn1 [Compound 3]" tested_target="α1β1γδ subtype of nicotinic acetylcholine receptors (Rattus norvegicus, UniProt P25108)" classification="Not met"
compound="Clc1ccc(Cn2ccs/c2=N\\c2ccccc2)cn1 [Compound 12]" tested_target="α1β1γδ subtype of nicotinic acetylcholine receptors (Rattus norvegicus, UniProt P25108)" classification=Met
compound="Clc1ccc(C/N=C2\\OCCCN2Cc2ccc(Cl)nc2)cn1 [Compound 2]" tested_target="α1β1γδ subtype of nicotinic acetylcholine receptors (Rattus norvegicus, UniProt P25108)" classification="Not met"
compound="Clc1ccc(CN2CCS/C2=N\\Cc2ccccc2)cn1 [Compound 14]" tested_target="α1β1γδ subtype of nicotinic acetylcholine receptors (Rattus norvegicus, UniProt P25108)" classification=Met
compound="CC1CCC/C(=N\\Cc2ccc(Cl)nc2)N1Cc1ccc(Cl)nc1 (stereo not shown) [Compound 7]" tested_target="α1β1γδ subtype of nicotinic acetylcholine receptors (Rattus norvegicus, UniProt P25108)" classification="Not met"
compound="N=C1N(Cc2ccc(Cl)nc2)CCCN1Cc1ccc(Cl)nc1 [Compound 4]" tested_target="α1β1γδ subtype of nicotinic acetylcholine receptors (Rattus norvegicus, UniProt P25108)" classification=Met
compound="Cc1cs/c(=N\\Cc2ccc(Cl)nc2)n1Cc1ccc(Cl)nc1 [Compound 9]" tested_target="α1β1γδ subtype of nicotinic acetylcholine receptors (Rattus norvegicus, UniProt P25108)" classification=Met

---

# Tested Target: α4β2 subtype of nicotinic acetylcholine receptors (Rattus norvegicus, UniProt P09483+P12390)
# Construct: examined using rat brain membrane obtained from whole homogenized brain
# Test Name: Binding assay at α4β2 subtype of nicotinic acetylcholine receptors ([3H]-cytisine, rat brain membrane)
# Description: The methods for evaluating the binding capabilities of the compounds against nicotinic acetylcholine receptors are different by subtypes of receptors. […] Suspensions of membrane pellets containing 400-600 μg of protein were added to test tubes containing test compounds and [^3H]-cytisine (2 nM) in a final volume of 200 μl and incubated for 75 minutes in ice-cooled bath. […] The filters were counted in 3 ml of clearsol I (Nacalai Tesque Inc.). […]
Measure: Ki (nM)

molecule="Clc1ccc(CC/N=C2\\SCCN2Cc2ccc(Cl)nc2)cn1 [Compound 15]" measure=Ki meas_value=86
molecule="Clc1ccc(C/N=C2\\OCCCN2Cc2ccc(Cl)nc2)cn1 [Compound 2]" measure=Ki meas_value=22
molecule="N=C1N(Cc2ccc(Cl)nc2)CCCN1Cc1ccc(Cl)nc1 [Compound 4]" measure=Ki meas_value=475
molecule="Clc1ccc(C/N=C2\\SCCN2Cc2ccc(Cl)nc2)cn1 [Compound 1]" measure=Ki meas_value=16
molecule="Cc1cs/c(=N\\Cc2ccc(Cl)nc2)n1Cc1ccc(Cl)nc1 [Compound 9]" measure=Ki meas_value=110
molecule="Clc1ccc(CN2CCS/C2=N\\Cc2ccccc2)cn1 [Compound 14]" measure=Ki meas_value=123
molecule="Cn1ccn(Cc2ccc(Cl)nc2)c1=N [Compound 13]" measure=Ki meas_value=15
molecule="Clc1ccc(C/N=C2\\NCCCN2Cc2ccc(Cl)nc2)cn1 [Compound 3]" measure=Ki meas_value=739
molecule="Clc1ccc(C/N=c2\\sccn2Cc2ccc(Cl)nc2)cn1 [Compound 8]" measure=Ki meas_value=42

---

Parameter control % of [3H]-α-Bgt binding at 100 μM of test compound: see the listing below.
# Tested Target: α1β1γδ subtype of nicotinic acetylcholine receptors (Rattus norvegicus, UniProt P25108)
# Construct: The centrifugation at 100,000×G for 60 minutes at 4° C. yielded the rat muscle extract as supernatant
# Test Name: biochemical
# Format: binding
# Test Parameters: 100 μM test compound; % of control binding remaining
Measure: control % of [3H]-α-Bgt binding at 100 μM of test compound

compound=Clc1ccc(C/N=C2\OCCCN2Cc2ccc(Cl)nc2)cn1 meas_value=95%
compound=Clc1ccc(C/N=C2\NCCCN2Cc2ccc(Cl)nc2)cn1 meas_value=77%
compound=Cc1cs/c(=N\Cc2ccc(Cl)nc2)n1Cc1ccc(Cl)nc1 meas_value=78%
compound=Clc1ccc(CN2CCS/C2=N\Cc2ccccc2)cn1 meas_value=64%
compound=Clc1ccc(Cn2ccs/c2=N\c2ccccc2)cn1 meas_value=86%
compound="CC1CCC/C(=N\\Cc2ccc(Cl)nc2)N1Cc1ccc(Cl)nc1 (stereo not shown)" meas_value=85%
compound=N=C1N(Cc2ccc(Cl)nc2)CCCN1Cc1ccc(Cl)nc1 meas_value=49%

---

# Tested Target: α4β2 subtype of nicotinic acetylcholine receptors (Rattus norvegicus, UniProt P09483+P12390)
# Construct: examined using rat brain membrane obtained from whole homogenized brain; from tissue; host or cells: whole brain membranes of Fischer-344 male rats
# Test Name: Binding assay at α4β2 subtype of nicotinic acetylcholine receptors ([3H]-cytisine, rat brain membrane)
# Test Parameters: 10 μM test compound; % of control binding remaining
# control % of [3H]-cytisine binding at 10 μM of test compound annotations
Measure: control % of [3H]-cytisine binding at 10 μM of test compound (%)

molecule=N=c1n(Cc2ccc(Cl)nc2)ccn1Cc1ccc(Cl)nc1 unit_tag=% meas_value=46
molecule=Clc1ccc(Cn2ccs/c2=N\c2ccccc2)cn1 unit_tag=% meas_value=84
molecule=C/N=C1\SCCN1Cc1ccc(Cl)nc1 unit_tag=% meas_value=18
molecule=Clc1cc/c(=N\Cc2ccc(Cl)nc2)n(Cc2ccc(Cl)nc2)c1 unit_tag=% meas_value=45
molecule="CC1CCC/C(=N\\Cc2ccc(Cl)nc2)N1Cc1ccc(Cl)nc1 (stereo not drawn)" unit_tag=% meas_value=75
molecule=Clc1ccc(C/N=c2\ncccn2Cc2ccc(Cl)nc2)cn1 unit_tag=% meas_value=23
